Data provenance: ChEMBL document CHEMBL2218924

# TESTED TARGET: Tyrosine-protein kinase Tec (Homo sapiens) (UniProt P42680)
# Sequence (P42680 whole entry): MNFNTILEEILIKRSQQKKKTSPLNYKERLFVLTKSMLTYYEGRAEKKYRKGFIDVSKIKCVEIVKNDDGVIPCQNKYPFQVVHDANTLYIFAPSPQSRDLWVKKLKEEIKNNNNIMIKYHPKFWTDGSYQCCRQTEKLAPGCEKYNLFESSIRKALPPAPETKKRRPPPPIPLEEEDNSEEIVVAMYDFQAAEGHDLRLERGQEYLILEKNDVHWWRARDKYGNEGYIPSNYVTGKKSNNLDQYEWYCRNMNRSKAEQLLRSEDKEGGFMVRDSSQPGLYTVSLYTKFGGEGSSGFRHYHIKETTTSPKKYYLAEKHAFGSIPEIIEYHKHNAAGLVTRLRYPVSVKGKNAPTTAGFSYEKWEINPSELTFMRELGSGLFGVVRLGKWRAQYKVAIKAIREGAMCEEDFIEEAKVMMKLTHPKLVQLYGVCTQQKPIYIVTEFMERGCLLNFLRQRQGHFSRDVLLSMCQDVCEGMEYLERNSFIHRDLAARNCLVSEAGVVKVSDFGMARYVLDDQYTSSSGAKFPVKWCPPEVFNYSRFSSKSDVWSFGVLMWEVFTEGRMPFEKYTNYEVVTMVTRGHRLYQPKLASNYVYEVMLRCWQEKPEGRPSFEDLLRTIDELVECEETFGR
# MEASUREMENT SETUP: at 1 µM
ASSAY METRIC: residual activity (%)

[[record]]
compound = "CCCCc1c(-c2ccc(OC)cc2)[nH]c2nccnc12"
tested_target = "Tyrosine-protein kinase Tec (Homo sapiens) (UniProt P42680)"
test_value = 51

[[record]]
compound = "N#C/C(=C1/Nc2ccccc2S1)c1ccnc(NCCc2cccnc2)n1"
tested_target = "Tyrosine-protein kinase Tec (Homo sapiens) (UniProt P42680)"
test_value = 79

[[record]]
compound = "N#Cc1c(NC(=O)c2cccc3ccccc23)sc2c1CCCC2"
tested_target = "Tyrosine-protein kinase Tec (Homo sapiens) (UniProt P42680)"
test_value = 94

[[record]]
compound = "COc1ccc(COc2ccc(Cc3cnc(N)nc3N)cc2OC)cc1"
tested_target = "Tyrosine-protein kinase Tec (Homo sapiens) (UniProt P42680)"
test_value = 100

[[record]]
compound = "O=C(NC(NC(=S)Nc1ccc(F)c([N+](=O)[O-])c1)C(Cl)(Cl)Cl)C(c1ccccc1)c1ccccc1 (stereo not drawn)"
tested_target = "Tyrosine-protein kinase Tec (Homo sapiens) (UniProt P42680)"
test_value = 102

[[record]]
compound = "O=C(c1ccccc1)c1ccc(N2CCOCC2)cc1O"
tested_target = "Tyrosine-protein kinase Tec (Homo sapiens) (UniProt P42680)"
test_value = 96

[[record]]
compound = "CN(C)S(=O)(=O)c1ccc2c(c1)/C(=C/c1cc3c([nH]1)CCCC3)C(=O)N2"
tested_target = "Tyrosine-protein kinase Tec (Homo sapiens) (UniProt P42680)"
test_value = 86

[[record]]
compound = "CCN(CC)CCNC(=O)c1c(C)[nH]c(/C=C2\\C(=O)Nc3ccc(Cl)cc32)c1C"
tested_target = "Tyrosine-protein kinase Tec (Homo sapiens) (UniProt P42680)"
test_value = 78

[[record]]
compound = "CC(C)(C)n1nc(Cc2cccc3ccccc23)c2c(N)ncnc21"
tested_target = "Tyrosine-protein kinase Tec (Homo sapiens) (UniProt P42680)"
test_value = 53

[[record]]
compound = "O=C1Cc2c([nH]c3ccc(Br)cc23)-c2ccccc2N1"
tested_target = "Tyrosine-protein kinase Tec (Homo sapiens) (UniProt P42680)"
test_value = 92

[[record]]
compound = "O=C1NC(=O)C(c2cn(CCCO)c3ncccc23)=C1c1cnccn1"
tested_target = "Tyrosine-protein kinase Tec (Homo sapiens) (UniProt P42680)"
test_value = 91

[[record]]
compound = "COc1cc2c(cc1OC)-c1n[nH]c(Nc3cccc(F)c3)c1C2"
tested_target = "Tyrosine-protein kinase Tec (Homo sapiens) (UniProt P42680)"
test_value = 63

[[record]]
compound = "Nc1n[nH]c2nc3ccccc3nc12"
tested_target = "Tyrosine-protein kinase Tec (Homo sapiens) (UniProt P42680)"
test_value = 81

